# System: OVCAR-8
# Protocol summary: NCI tumour cell line growth inhibition, 48 h
Active and inactive are the calls of the source. Rule as the data show it: active = GI50 up to about 1.1 µM and inactive = higher.
Listed below: GI50 values for each entry.

Molecule | Quantity | Assay value
CCN1/C(=C/C#C/C(C)=C\c2sc3ccc(Cl)cc3[n+]2CC)Sc2ccc(Cl)cc21 | GI50 | 3.24 µM (inactive)
COc1cc(CC(=O)c2ccc3c(c2)OCO3)cc(OC)c1OC | GI50 | > 100 µM (inactive)

[in] Item under review: O=C1c2ccccc2NC2C(O)c3ccccc3N12 (stereo unspecified) . Reported GI50?
[out] 49.1 µM (inactive)

[in] Item under review: CC(C)=CCc1c(C)cc2cc3c(c(O)c2c1O)C(=O)C=C(O)C3(CC=C(C)C)C/C=C(\C)CO (stereo unspecified) . Reported GI50?
[out] 28.8 µM (inactive)

[in] Item under review: COc1ccc(N2C(=O)C3c4[nH]c5ccccc5c4C4CC(C)CC(C)C4C3C2=O)cc1 (stereo unspecified) . Reported GI50?
[out] > 100 µM (inactive)

[in] Item under review: CCSc1nc2n(c(=S)n1)CCN2C . Reported GI50?
[out] 20.7 µM (inactive)

* * *

# Test system: OVCAR-3
# Protocol summary: NCI tumour cell line growth inhibition, 48 h
Active and inactive are the calls of the source. Rule as the data show it: active = GI50 up to about 1.1 µM and inactive = higher.
A correct response names exactly one class from active, inactive

Compound | Measured on | Assigned class
O=[N+]([O-])c1cccc(/C=N/N=c2\ccc3ccccc3[nH]2)c1O | OVCAR-3 | active
O=c1c(C(c2cnc3ccccc3c2)c2c(O)oc3ccccc3c2=O)c(O)oc2ccccc12 | OVCAR-3 | inactive
COc1cc2cnc3c4cc(O)ccc4ccc3c2cc1OC | OVCAR-3 | inactive
COC(=N)/C(=C1\OC(=N)C(c2ccc(Cl)cc2)=C1O)c1ccc(Cl)cc1 | OVCAR-3 | inactive
Cc1c(N)nc([C@H](CC(N)=O)NC[C@H](N)C(N)=O)nc1C(=O)N[C@H](C(=O)N[C@H](C)[C@@H](O)[C@H](C)C(=O)N[C@H](C(=O)NCCc1nc(-c2nc(C(=O)NCCC[S+](C)C)cs2)cs1)[C@@H](C)O)C(OC1OC(CO)C(O)C(O)C1OC1OC(CO)C(O)C(OC(N)=O)C1O)c1c[nH]cn1 (stereo not given in full) | OVCAR-3 | inactive
NC(=O)NNc1nc2ccccc2c(=O)n1NC(=O)C(=O)Nc1ccc(Cl)cc1Cl | OVCAR-3 | inactive

[in] Returns: the outcome recorded for O=C1c2ccccc2C(=O)c2c(NCCNC(=O)C3CCCN3)ccc(NCCNC(=O)C3CCCN3)c21 (stereo not given) in this assay.
[out] inactive

[in] Returns: the outcome recorded for O=C(CCc1nnc2s/c(=C\c3ccccc3)c(=O)n12)Nc1cc(Cl)ccc1Cl in this assay.
[out] inactive

[in] Returns: the outcome recorded for CCOc1ccccc1Nc1ccc(N)cc1S(=O)(=O)O in this assay.
[out] inactive

[in] Returns: the outcome recorded for Cc1cccc2cc3c(ccc4ccccc43)c[n+]12 in this assay.
[out] inactive

* * *

# Test system: CCRF-CEM
# Protocol summary: NCI tumour cell line growth inhibition, 48 h
Calls of active or inactive are those of the source. Cut-off read from the data, not from the text of the source: active = GI50 up to about 1.1 µM and inactive = higher.
Listed below: GI50 values for each entry.

Some compounds with known GI50 results, for comparison:
Compound | Measured on | GI50
CC[C@H](C)C1=C(O)[N@+]2([O-])Oc3ccc(-c4c(O)c(O)c(-c5ccc(OC(C)=O)cc5)c(OC(C)=O)c4OC(C)=O)cc3O[C@]2([C@@H](C)CC)C(=O)N1O | CCRF-CEM | 10.3 µM (inactive)
O=C(/C=C/c1ccc(Cl)cc1)c1ccc(Cl)s1 | CCRF-CEM | 27 µM (inactive)
N=C1N(/N=C/c2ccccn2)/C(=N\c2ccccc2)C(=S)N1c1ccccc1 | CCRF-CEM | 2.05 µM (inactive)
CC(Br)C(=O)c1ccc2cc(Br)c3ccccc3c2c1 (stereo not given) | CCRF-CEM | 2.45 µM (inactive)

[in] Item under review: COc1ccc(-c2nc3ccccc3s2)cc1OC . Reported GI50?
[out] 76.9 µM (inactive)

* * *

# Test system: RXF 631
# Protocol summary: NCI tumour cell line growth inhibition, 48 h
Calls of active or inactive are those of the source. Rule as the data show it: active = GI50 up to about 1.1 µM and inactive = higher.
Quantity: GI50

Some molecules with known GI50 results, for comparison:
Molecule | Assay value
COc1ccccc1/C=C\c1cc(OC)c(OC)c(OC)c1 | 15.8 µM (inactive)
CCCCC1(OC(=O)CCC(=O)O)CCC2(CCC(C)C(C/C=C(C)/C=C/C(O)C(C)/C=C/C(=O)O)O2)OC1CC/C(C)=C/C(=O)O (stereo not drawn) | 1.93 µM (inactive)

Proceeding to the next molecule to report its GI50.
[in] Item under review: Cc1oc2c(C)c(O)c3c(c2c1C1(C)OCCO1)C(=O)C=C(Cl)C3=O . Reported GI50?
[out] > 100 µM (inactive)

* * *

# Test system: HCT-116
# Protocol summary: NCI tumour cell line growth inhibition, 48 h
The source made the active and inactive calls. Rule as the data show it: active = GI50 up to about 1.1 µM and inactive = higher.
Quantity: GI50

Some molecules with known GI50 results, for comparison:
Molecule | Measured on | Quantity | Assay value
Cc1ccc(NC(=O)C(=O)C2C(=O)N(c3ccccc3)N=C2N)cc1C (stereo not drawn) | HCT-116 | GI50 | > 100 µM (inactive)
N#CC(C#N)=Cc1ccc(CP(=O)(O)O)cc1 | HCT-116 | GI50 | > 100 µM (inactive)
Nc1ccn(C2OC(C(OC3OC(CO)C(O)C(N)C3O)C(O)C(O)C(O)C(O)CO)C(N)C(O)C2O)c(=O)n1 (stereo not drawn) | HCT-116 | GI50 | 46.3 µM (inactive)
CC(C)=Cc1cc2c(cc1O)CCC1C2CC[C@@]2(C)C1CC[C@@H]2O (stereo partly drawn) | HCT-116 | GI50 | 10.3 µM (inactive)
O=C1CCCC2=C1CC1=C(CCCC1=O)N2c1ccc(-c2ccccc2)cc1 | HCT-116 | GI50 | > 100 µM (inactive)

[in] Item under review: CCC(C#N)N(Cc1ccc(CN(C(=O)c2ccccc2)C(C#N)CC)cc1)C(=O)c1ccccc1 (stereo not drawn) . Reported GI50?
[out] 17.6 µM (inactive)

* * *

# System: NCI-H460
# Protocol summary: NCI tumour cell line growth inhibition, 48 h
Active and inactive are the calls of the source. Rule as the data show it: active = GI50 up to about 1.1 µM and inactive = higher.
Quantity: GI50

Compound | GI50
CC(=O)OC1CCn2c1nc1cc([N+](=O)[O-])c(C)cc12 (centres undefined) | > 100 µM (inactive)
OC(c1ccco1)C(F)(F)c1nc2ccccc2o1 (centres undefined) | > 100 µM (inactive)

[in] Item under review: COc1cccc(/N=N/C(=N/NC(=O)c2ccc(C)cc2)c2ccc(N(CCC#N)CCC#N)cc2OC)c1 . Reported GI50?
[out] 3.76 µM (inactive)

[in] Item under review: OCC1OC(c2scc3c(=S)[nH]cnc23)C(O)C1O (centres undefined) . Reported GI50?
[out] 8.22 µM (inactive)

[in] Item under review: CC[C@](O)(CC(=O)O[C@H]1C(=O)O[C@@H]2C[C@H]3C(C)=CC(=O)[C@@H](O)[C@]3(C)[C@H]3[C@@]4(O)OC[C@]32[C@@H]1[C@@H](C)[C@H]4O)C(C)C . Reported GI50?
[out] < 0.01 µM (active)

[in] Item under review: CCCCCCCCCCCCCS(=O)(=O)NCC(N)=O . Reported GI50?
[out] > 100 µM (inactive)

[in] Item under review: O=C1c2ccccc2NC2C(O)c3ccccc3N12 (centres undefined) . Reported GI50?
[out] 13.2 µM (inactive)

[in] Item under review: COc1cc(C=C2N=C(c3ccccc3)N(n3c(-c4ccccc4)nc4ccccc4c3=O)C2=O)cc(OC)c1OC . Reported GI50?
[out] 20.3 µM (inactive)

[in] Item under review: CC1(C)CCCCCCCCCC2CC2CCC(C)(C)C1=O (centres undefined) . Reported GI50?
[out] 21.1 µM (inactive)

* * *

# Test system: SF-539
# Protocol summary: NCI tumour cell line growth inhibition, 48 h
Calls of active or inactive are those of the source. Rule as the data show it: active = GI50 up to about 1.1 µM and inactive = higher.
Quantity: GI50

[in] Look up GI50 with SF-539 for this compound: CC(C)=CCC[C@@H](C)C1=C(Nc2ccccc2Cl)C(=O)C(C)=C(O)C1=O
[out] 3.79 µM (inactive)

[in] Look up GI50 with SF-539 for this compound: CC1(C)CCC(Sc2ccccc2)O1 (stereo not given)
[out] > 100 µM (inactive)

[in] Look up GI50 with SF-539 for this compound: N#CCCN(CCC#N)c1ccc(/C=C2\N=C(c3ccccc3)N(NC(N)=S)C2=O)cc1
[out] > 100 µM (inactive)

[in] Look up GI50 with SF-539 for this compound: Oc1c(C2=N[C@H]3CCCC[C@@H]3N2)ccc2ccccc12
[out] > 59.6 µM (inactive)

[in] Look up GI50 with SF-539 for this compound: CC(=O)NC1C(OCc2ccccc2)OC(CO)C(O)C1OC(C)C(=O)NC(C)C(=O)NC(CCC(=O)NCCCNc1c2ccccc2nc2cccc([N+](=O)[O-])c12)C(N)=O (stereo not given)
[out] 3.86 µM (inactive)

These measurements were taken from ChEMBL document CHEMBL1201862.
